FYI, the data here is from PubChem BioAssay (NCI).

Each entry below carries its reported TGI.
# System: A549 NSCLC
# MEASUREMENT_DESCRIPTION: NCI tumour cell line growth inhibition, 48 h

Ask | Look up and state reported TGI for `Cc1cccc(N(C)C(=O)[C@@H]2[C@H](O)CCN2c2nc(C)cc(C(F)(F)F)c2C#N)c1`
Reply | > 100 µM

Ask | Provide only the value of recorded TGI for CC(C)(O)[C@@H]1CC[C@@]2(C)CCCC(O)C2(O)C1 (stereo not given in full)
Reply | > 100 µM

Ask | Kindly indicate its recorded TGI. Item: `CC(=O)Nc1c(S(=O)(=O)c2ccccc2)c(C)c(C)n1CCN(C)C`
Reply | > 100 µM

Ask | Report TGI, nothing else, for this molecule: `CC(C)(O)/C=C\P(=O)(O)O`
Reply | > 100 µM

Ask | Identify TGI associated with the molecule `CCN(CCCN(C)C)Cc1cc(I)cc(C)c1O`
Reply | 90 µM

====

# Test system: MCF7 breast
# MEASUREMENT_DESCRIPTION: NCI tumour cell line growth inhibition, 48 h
Where a SMILES comes first, the peptide text is derived from it. [ ]: non-standard residue; d: D form. The star is where a group is joined. ξ: configuration not given here. ξF = NC(Cc1ccccc1)C(=O)O; Cbz = O=C(OCc1ccccc1)*; Aib = CC(C)(N)C(=O)O; NHNH2 = NN*
ENDPOINT: TGI

COMPOUND	ENDPOINT	REPORTED
O=C1C[C@H](c2ccccc2)O[C@@H](c2ccccc2)C1	TGI	> 100 µM
CC(C)(NC(=O)OCc1ccccc1)C(=O)NC(Cc1ccccc1)C(=O)NN (configuration not stated) (Cbz-[Aib]-[ξF]-NHNH2)	TGI	> 100 µM
CCC(C)[C@H]1O[C@]2(CC[C@@H]1C)C[C@@H]1C[C@@H](C/C=C(\C)[C@@H](OC3C[C@H](OC)C(O[C@H]4C[C@H](OC)[C@@H](O)[C@H](C)O4)[C@H](C)O3)[C@@H](C)/C=C/C=C3\CO[C@@H]4[C@H](O)C(C)=C[C@@H](C(=O)O1)[C@]34O)O2 (some centres not stated)	TGI	10.8 µM
O=C1NC(=O)C(F)(n2cc(F)c(=O)[nH]c2=O)C(O)N1 (configuration not stated)	TGI	> 10 µM
CS(=O)(=O)Nc1cncc(-c2ccc3ncnc(Nc4ccc(F)c(Cl)c4)c3c2)c1	TGI	8.77 µM
COc1cc(Nc2nc3cc(N)cc(N)c3nc2-c2ccccc2)cc(OC)c1OC	TGI	94.5 µM

Ask | Consider the compound CCCCCCCCCCCCOC1C(CNC(=O)C2OC3OC(C)(C)OC3C2NC(=O)Nc2ccc(CC(=O)OC)cc2)OC2OC(C)(C)OC21 (configuration not stated) tested on MCF7 breast; state its TGI.
Reply | > 100 µM

Ask | Jot down TGI (MCF7 breast) of `Cc1cc(S(=O)(=O)Nc2nc3ccccc3o2)c(SCc2ccccc2)cc1Cl` .
Reply | 78.3 µM

Ask | Give measured TGI for CC(=O)O[C@H]1C(=O)[C@@]2(C)C(C(OC(=O)c3ccccc3)[C@]3(O)C[C@H](OC(=O)C(OC(=O)CCCC(=O)NCCCN(C)C)C(NC(=O)c4ccccc4)c4ccccc4)C(C)=C1C3(C)C)C1(OC(C)=O)COC1C[C@@H]2O (some centres not stated) (MCF7 breast).
Reply | 48.5 µM

Ask | # return TGI for `Cc1nc([P+](c2ccccc2)(c2ccccc2)c2ccccc2)c(Sc2sc(-c3ccccc3)nc2[P+](c2ccccc2)(c2ccccc2)c2ccccc2)o1` , test system: MCF7 breast
Reply | 4.81 µM

Ask | Specify TGI for `CN(C)CCCc1cccc2[nH]c3c(c12)CN(C)CC3` , system MCF7 breast.
Reply | > 100 µM

Ask | State the measured TGI (MCF7 breast) of Oc1ccc(O)c(CNc2ccc(C(O)C(F)(F)F)cc2)c1 (configuration not stated)
Reply | 69.2 µM

Ask | State measured TGI of the compound `Cn1c(=O)[nH]c2nncnc2c1=O` with MCF7 breast.
Reply | > 501 µM

Ask | Look up and report TGI, with MCF7 breast as system, for `CCc1ccccc1N=NC(=O)NNc1ccccc1CC`
Reply | 36.3 µM

Ask | Please look at `Cc1cc2nc3c4cc(O)ccc4n(CCN(C)C)c3nc2cc1C` and tell me its recorded TGI on MCF7 breast.
Reply | 3.26 µM

Ask | Report TGI under test system MCF7 breast for `O=c1oc2ccccc2nc1/C=C(\O)c1ccc(Cl)cc1` .
Reply | > 100 µM

Ask | Report value: TGI, system: MCF7 breast, compound: `O=C(Cc1ccc(/C=C/C(=O)c2ncc[nH]2)cc1)Nc1ccc(F)cc1`
Reply | 4.62 µM

====

# Test system: HCC-2998 colon
# MEASUREMENT_DESCRIPTION: NCI tumour cell line growth inhibition, 48 h; in the data active = GI50 below about 0.43 µM; inactive = the rest
Pick from True (active), False (inactive) when you respond.

Use these answered entries as a reference point.
>>> df
                                   molecule  class
0  COc1ccc(/C=C/C(=O)c2cc(OC)c(OC)c(OC)c2)cc1OCC(=O)Nc1nc2ccc(OC(F)(F)F)cc2s1  False
1  COc1cc(C2Cc3ncccc3-c3[nH]c(=O)c4cccnc4c32)cc(OC)c1OC (configuration not stated)  False
2  CCSCC1CC(O)(c2ccccc2)CC(c2ccc(F)cc2)O1 (configuration not stated)  False

Ask | # lookup: test call for `CC(=O)c1ccc2c(c1)c1cc(C(C)=O)ccc1n2CCNC(C)C`
Reply | False

Ask | How was `CCOC(=O)c1ccc(NC(=O)Nc2nncs2)cc1` classified in this test?
Reply | False

Ask | Each molecule tested received a call. Report the one for `CC(C)(C)c1ccc(S(=O)(=O)Oc2ccc3c4c(c(=O)oc3c2)CCCCC4)cc1` .
Reply | False

Ask | How did this test come out for CCCCCCCCCCCCOC1C(CNC(=O)C2OC3OC(C)(C)OC3C2NC(=O)Nc2ccc(CC(=O)OC)cc2)OC2OC(C)(C)OC21 (configuration not stated) ?
Reply | False

Ask | Any idea what this test logged for `CCN(Cc1ccc(C)cc1)c1ccc(CO)c(Cl)c1` ?
Reply | False

Ask | Any idea what this test logged for `O=S(=O)(NCCCNc1nccc(-c2c(-c3ccc(O)cc3)nc3sccn23)n1)c1ccc(F)cc1` ?
Reply | False

Ask | Give the logged outcome of this assay for the following molecule: CC(N)C(Cc1ccc(Cl)cc1)c1ccc(Cl)cc1 (configuration not stated)
Reply | False

Ask | Test call, this molecule: `O=C(Nc1ccc2[nH]nc(-c3ccncc3)c2c1)[C@@H]1CCN(CC(=O)N2CCN(c3ccc(-c4ncccn4)cc3)CC2)C1`
Reply | True

====

# System: HOP-62 NSCLC
# MEASUREMENT_DESCRIPTION: NCI tumour cell line growth inhibition, 48 h
Readings of TGI for the listed compounds
The figure you give is taken to be in µM; do not add the unit.

>>> print(df.to_string())
                                   compound  reported
0  CN(C)CCCN1C(=S)N(CCCN(C)C)c2c3ccccc3nc3c([N+](=O)[O-])ccc1c23        47

Alright, here's another compound for you.
Ask | Report measured TGI; entry is COc1ccc(N=Nc2c(C)c(C#N)c(=S)n(C3OC(CO)C(O)C(O)C3O)c2-c2ccccc2)cc1 (stereo not given)
Reply | 98.2

====

# Test system: HOP-62 NSCLC
# MEASUREMENT_DESCRIPTION: NCI tumour cell line growth inhibition, 48 h
ENDPOINT: GI50

>>> print(df.to_string())
                            compound_string  endpoint    reported
0            C/C(=N\NC(=S)N1CCCCC1)c1ccccn1      GI50  < 0.016 µM
1  COC[C@@H](N=C1NC(=O)/C(=C/c2ccc3ncccc3c2)S1)c1ccccc1      GI50     11.7 µM

Ask | # return GI50 of `NS(=O)(=O)c1ccc(Nc2cc(-c3cccc(O)c3)[nH]n2)cc1` (system: HOP-62 NSCLC)
Reply | > 25 µM

Ask | Provide HOP-62 NSCLC GI50 reading for `Fc1cccc(COc2ccc(Nc3ncnc4sc(-c5cccs5)cc34)cc2Cl)c1` .
Reply | 4.88 µM

Ask | // fetch GI50; item: `CCOC(=O)c1cc(C(=O)c2cc(OC)c(OC)c(OC)c2)n2ncccc12` ; system: HOP-62 NSCLC
Reply | 0.63 µM

====

# Tested on: CCRF-CEM leukemia
# MEASUREMENT_DESCRIPTION: NCI tumour cell line growth inhibition, 48 h
TGI values, listed per item

COMPOUND	TGI
Fc1cc2[nH]ncc2c2c3c(c(-c4cn[nH]c4C(F)(F)F)nc12)CCCC3	> 100 µM
CC(C)(Br)C(=O)N1CCN(C(c2ccccc2)c2ccccc2)CC1	> 100 µM
COc1ccc(C2NC(=S)Nc3c2c(=O)oc2c3ccc3ccccc32)cc1 (stereo not drawn)	> 100 µM
Cc1ccc(S(=O)(=O)OCCn2cnc3nc(NC(=O)c4ccccc4)[nH]c(=O)c32)cc1	> 100 µM
COc1ccc(N=Nc2c(C)c(C#N)c(=S)n(C3OC(CO)C(O)C(O)C3O)c2-c2ccccc2)cc1 (stereo not drawn)	> 100 µM
CC(=O)O[C@H]1C(=O)[C@@]2(C)C(C(OC(=O)c3ccccc3)[C@]3(O)C[C@H](OC(=O)C(OC(=O)CCCC(=O)NCCCN(C)C)C(NC(=O)c4ccccc4)c4ccccc4)C(C)=C1C3(C)C)C1(OC(C)=O)COC1C[C@@H]2O (stereo partly drawn)	9.58 µM

Ask | Input `COc1nc2[nH]ccc2c(=O)[nH]1` , output reported TGI.
Reply | > 100 µM

Ask | Supply TGI value. Item: COc1c(CC=C(C)C)c(O)c(C(CC(C)C)c2c(O)c3c(c(C(C)=O)c2O)OC(C(C)(C)O)C3)c(O)c1C(C)=O (stereo not drawn)
Reply | 9.74 µM
